// data source = BigSolDB 2.1

details: in isobutanol, 288.15 K
value-type: solubility (mole fraction)

• Cc1ccc(S(=O)(=O)NC(=O)NN2CC3CCCC3C2)cc1 (stereo unspecified) = 0.000709

* * *

details: in n-butanol, 288.15 K
value-type: solubility (mole fraction)

- Cc1ccc(S(=O)(=O)NC(=O)NN2CC3CCCC3C2)cc1 (stereo unspecified): 0.000984

* * *

details: in sec-butanol, 303.15 K
value-type: solubility (mole fraction)

* Cc1ccc(S(=O)(=O)NC(=O)NN2CC3CCCC3C2)cc1 (stereo unspecified) | 0.00166

* * *

settings: in isopropanol, 288.15 K
value-type: solubility (mole fraction)

- Cc1ccc(S(=O)(=O)NC(=O)NN2CC3CCCC3C2)cc1 (stereo unspecified): 0.000579

* * *

details: in cyclohexanone, 298.15 K
value-type: solubility (mole fraction)

* Cc1ccc(S(=O)(=O)NC(=O)NN2CC3CCCC3C2)cc1 (stereo unspecified) | 0.0209

* * *

settings: in methanol, 298.15 K
value-type: solubility (mole fraction)

• Cc1ccc(S(=O)(=O)NC(=O)NN2CC3CCCC3C2)cc1 (stereo unspecified) = 0.00257

* * *

details: in ethanol, 318.15 K
value-type: solubility (mole fraction)

* Cc1ccc(S(=O)(=O)NC(=O)NN2CC3CCCC3C2)cc1 (stereo unspecified) | 0.00358

* * *

conditions: in acetone, 293.15 K
value-type: solubility (mole fraction)

- Cc1ccc(S(=O)(=O)NC(=O)NN2CC3CCCC3C2)cc1 (stereo unspecified): 0.0141

* * *

conditions: in THF, 308.15 K
value-type: solubility (mole fraction)

* Cc1ccc(S(=O)(=O)NC(=O)NN2CC3CCCC3C2)cc1 (stereo unspecified) | 0.0539

* * *

conditions: in acetonitrile, 298.15 K
value-type: solubility (mole fraction)

- Cc1ccc(S(=O)(=O)NC(=O)NN2CC3CCCC3C2)cc1 (stereo unspecified): 0.0039

* * *

settings: in cyclohexanone, 288.15 K
value-type: solubility (mole fraction)

• Cc1ccc(S(=O)(=O)NC(=O)NN2CC3CCCC3C2)cc1 (stereo unspecified) = 0.0155

* * *

settings: in THF, 318.15 K
value-type: solubility (mole fraction)

• Cc1ccc(S(=O)(=O)NC(=O)NN2CC3CCCC3C2)cc1 (stereo unspecified) = 0.076

* * *

details: in methanol, 313.15 K
value-type: solubility (mole fraction)

* Cc1ccc(S(=O)(=O)NC(=O)NN2CC3CCCC3C2)cc1 (stereo unspecified) | 0.00428

* * *

details: in THF, 313.15 K
value-type: solubility (mole fraction)

- Cc1ccc(S(=O)(=O)NC(=O)NN2CC3CCCC3C2)cc1 (stereo unspecified): 0.0635

* * *

conditions: in n-propanol, 303.15 K
value-type: solubility (mole fraction)

* Cc1ccc(S(=O)(=O)NC(=O)NN2CC3CCCC3C2)cc1 (stereo unspecified) | 0.00199

* * *

conditions: in isobutanol, 318.15 K
value-type: solubility (mole fraction)

• Cc1ccc(S(=O)(=O)NC(=O)NN2CC3CCCC3C2)cc1 (stereo unspecified) = 0.00286

* * *

conditions: in sec-butanol, 288.15 K
value-type: solubility (mole fraction)

* Cc1ccc(S(=O)(=O)NC(=O)NN2CC3CCCC3C2)cc1 (stereo unspecified) | 0.000834

* * *

details: in THF, 293.15 K
value-type: solubility (mole fraction)

• Cc1ccc(S(=O)(=O)NC(=O)NN2CC3CCCC3C2)cc1 (stereo unspecified) = 0.0318
